// data source = patent US5646121A

Tested on: HCMV (Davis)
Assay: Anti-HCMV screening test: inhibition of the cytopathogenic effect in HELF cell cultures
Assay type: cell-based, human cytomegalovirus
Conditions: HCMV (Davis)-infected HELF cells, 6 days; concentration causing 50% inhibition of the CPE
READOUT_KIND: pIC50
Conceptually, pIC50 converts a concentration in mol/L into minus its log10.

Problem: Jot down pIC50 (HCMV (Davis)) of Cc1ccc(S(=O)(=O)NC(=N)NCCC[C@H](NC(=O)OCc2ccccc2)C(=O)N[C@H](C(=O)NC(C=O)Cc2ccccc2)C(C)(C)C)cc1 (stereo partly shown) [Example 50] .
Solution: 8.40
